Listing of recorded Ag Score by entry.
- STUDY SYSTEM: T1, RSV F antigen (respiratory syncytial virus (RSV), UniProt P03420 26-524)
- T1 construct: also called F antigen of RSV; RSV F protein
- T1 sequence (P03420 26-524): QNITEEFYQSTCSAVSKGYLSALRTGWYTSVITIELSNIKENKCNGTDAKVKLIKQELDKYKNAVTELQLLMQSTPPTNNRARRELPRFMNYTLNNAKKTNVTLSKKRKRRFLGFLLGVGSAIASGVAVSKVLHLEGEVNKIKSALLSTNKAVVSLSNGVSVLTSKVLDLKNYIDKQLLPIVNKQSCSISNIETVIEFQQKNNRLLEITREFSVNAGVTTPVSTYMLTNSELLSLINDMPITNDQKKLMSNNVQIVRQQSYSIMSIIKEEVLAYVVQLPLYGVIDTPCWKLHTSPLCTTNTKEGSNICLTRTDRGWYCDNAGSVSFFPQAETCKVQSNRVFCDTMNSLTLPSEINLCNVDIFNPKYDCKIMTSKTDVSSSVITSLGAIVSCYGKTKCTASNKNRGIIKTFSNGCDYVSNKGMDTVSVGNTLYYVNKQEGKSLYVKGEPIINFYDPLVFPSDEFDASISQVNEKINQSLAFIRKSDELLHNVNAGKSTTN
- TEST METHOD NOTES: antibody titration ELISA on 500 ng RSV F antigen; qualitative score from titration curves

Solved cases (4 shown):
BINDER: clone 4 (PFFY) (antibody, V domains shown) VH: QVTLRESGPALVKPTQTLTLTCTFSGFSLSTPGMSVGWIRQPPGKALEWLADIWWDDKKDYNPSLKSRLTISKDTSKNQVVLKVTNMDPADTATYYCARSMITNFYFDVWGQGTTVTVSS VL: DIQMTQSPSTLSASVGDRVTITCSASSSVGYMHWYQQKPGKAPKLLIYDTFKLASGVPSRFSGSGSGTEFTLTISSLQPDDFATYYCFQGSYYPFTFGGGTKVEIK
RECORDED RESULT: 3.5 arbitrary score (0-4)
--
BINDER: clone 21 (SWYF) (antibody, V domains shown) VH: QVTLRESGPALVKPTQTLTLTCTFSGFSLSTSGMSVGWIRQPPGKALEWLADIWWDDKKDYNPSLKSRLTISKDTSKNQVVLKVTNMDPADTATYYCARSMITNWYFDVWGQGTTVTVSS VL: DIQMTQSPSTLSASVGDRVTITCSASSSVGYMHWYQQKPGKAPKLLIYDTYKLASGVPSRFSGSGSGTEFTLTISSLQPDDFATYYCFQGSFYPFTFGGGTKVEIK
RECORDED RESULT: 2 arbitrary score (0-4)
--
BINDER: clone 3 (PFFF) (Fab, V domains shown) VH: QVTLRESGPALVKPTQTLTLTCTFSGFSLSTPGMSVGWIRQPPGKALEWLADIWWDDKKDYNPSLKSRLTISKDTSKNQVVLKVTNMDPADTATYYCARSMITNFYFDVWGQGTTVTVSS VL: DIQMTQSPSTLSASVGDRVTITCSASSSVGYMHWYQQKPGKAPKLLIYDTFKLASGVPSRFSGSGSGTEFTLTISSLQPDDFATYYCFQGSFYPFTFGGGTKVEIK
RECORDED RESULT: 4 arbitrary score (0-4)
--
BINDER: clone 6 (PFYF) (antibody, V domains shown) VH: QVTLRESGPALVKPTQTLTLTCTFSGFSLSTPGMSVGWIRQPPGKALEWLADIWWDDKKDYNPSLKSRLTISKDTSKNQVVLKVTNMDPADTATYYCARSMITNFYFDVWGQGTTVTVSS VL: DIQMTQSPSTLSASVGDRVTITCSASSSVGYMHWYQQKPGKAPKLLIYDTYKLASGVPSRFSGSGSGTEFTLTISSLQPDDFATYYCFQGSFYPFTFGGGTKVEIK
RECORDED RESULT: 3.5 arbitrary score (0-4)

binder clone 15 (AFSG) (antibody, V domains shown) VH: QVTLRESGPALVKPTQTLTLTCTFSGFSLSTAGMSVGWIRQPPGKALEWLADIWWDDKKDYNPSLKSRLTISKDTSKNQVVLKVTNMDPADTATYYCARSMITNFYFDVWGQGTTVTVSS VL: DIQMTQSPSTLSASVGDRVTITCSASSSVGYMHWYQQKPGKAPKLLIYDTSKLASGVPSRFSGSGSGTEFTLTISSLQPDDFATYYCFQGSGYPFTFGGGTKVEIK , Ag Score observed: 2.5 arbitrary score (0-4)

Looking up clone 13 (SFFF) (antibody, V domains shown) VH: QVTLRESGPALVKPTQTLTLTCTFSGFSLSTSGMSVGWIRQPPGKALEWLADIWWDDKKDYNPSLKSRLTISKDTSKNQVVLKVTNMDPADTATYYCARSMITNFYFDVWGQGTTVTVSS VL: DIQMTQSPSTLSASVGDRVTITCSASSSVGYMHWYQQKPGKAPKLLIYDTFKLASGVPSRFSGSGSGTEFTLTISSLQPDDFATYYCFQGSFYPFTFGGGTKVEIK , I found its Ag Score recorded as 2.5 arbitrary score (0-4)

Measured values drawn from patent US20040131609A1 for this set.
